# System: PMA-stimulated neutrophils
# assayDetails: Neutrophil Superoxide Anion (O2^-) Release Assay
# Type: cell-based, human
# conditionContext: Homo sapiens, Neutrophil; PMA-stimulated; value outside parentheses (not salt); read-out: Neutrophil Superoxide Release IC50
# Description: Neutrophils are isolated form whole blood collected from human volunteers. […] The neutrophil cell concentration is adjusted to 2×10^6 cells/ml with HBSS before adding 0.8 mL cells to 12×75 mm polypropylene test tubes (Fisher Scientific). […] Optical density (OD) of cytochrome c is read in a spectrophotometer (Shimadzu) at 550 nm. […] Reducing cytochrome c increases its absorbance, and the change in OD of cytochrome c is proportional to the amount of O2^- produced by PMA stimulation. […]
assayMetric: IC50 (µM)

- molecule: "CCCCCCCCCCCCCCCCN(CCCN(C)C)C(C)=O"
  number: 1.1
- molecule: "CCCCCCCCCCCCCCCC(=O)N(C)CCCN(C)C"
  number: 45
- molecule: "CCCCCCCCCCCCCCCC(=O)NCCCN1CCCCC1C (stereo not drawn)"
  number: 1.8
- molecule: "CCCCCCCCCCCCCCCC(=O)NCCCN(C)C"
  number: 2.32
- molecule: "CCCCCCCCCCCCCCCC(=O)N(CCCN(C)C)C(C)C"
  number: 0.9
- molecule: "CCCCCCCCCCCCCCCC(=O)N(CCC)CCCN(C)C"
  number: 2.9
